Listing: binding signal of selected binders
- target or test system: T1, UNK ZnF1-3 (human, UniProt Q9C0B0 31-174)
- T1 sequence: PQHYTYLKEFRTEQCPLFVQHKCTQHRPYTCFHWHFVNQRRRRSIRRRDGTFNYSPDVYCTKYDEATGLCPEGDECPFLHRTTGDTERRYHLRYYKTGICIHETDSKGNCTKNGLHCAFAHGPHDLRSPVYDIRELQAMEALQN
- experiment notes: nsRBNS (natural sequence RNA bind-n-seq); RBNS binding buffer (assumed for nsRBNS): 25 mM Tris pH 7.5, 150 mM KCl, 3 mM MgCl2, 0.01% Triton X-100, 500 ug/ml BSA, 20 U/ml SUPERase-In, 4 C; UNK is unkempt and MSI1 is Musashi-1; names of the RNAs are library labels; protein concentration not given here; high values mean tight binding
In all, about 24,000 sequences were measured (“enrichment r”: median about 0.99, highest 2% from about 3.7 on). Shown is part of a subset that was picked to be rich in the highest values.
Write down the numeric answer in enrichment R and omit the unit.

{"binder": "chr10:60895279:60895280:-_ENSMUSG00000020091_ENSMUST00000020288|mus_mus|FALSE|FALSE (ssRNA) RNA: GGGAGUUCUACAGUCCGACGAUCACUGGAAGAUGUUUUGUUAAAAAAGUUGUAGUUCAAAAUUGUACUGAAAACUUAUCUAAAAAUAGGUCUGUAGUCAUCUUAAAAAUAAAAGGUCUCUCCUCUGAUAAGGAGAGACUGAUACAACAGAGGAUUGAGCAUCA", "unit tag": "enrichment R", "measured value": 0.617}
{"binder": "chr15:37385894:37385895:-_ENSG00000134138_ENST00000382766|hu_mus|motif|central (ssRNA) RNA: GGGAGUUCUACAGUCCGACGAUCGCUUCCAUCUCUCUCAUCAAUCACGAGGUCAAUGGGCAUUUUUCCCUUCAAACAGCGGAUGUACCGGUGGCAGAAGUUAUCACAUAGUUCGUGGACCUUUUCUAACUCCAGAAGAUGAAACAACAGAGGAUUGAGCAUCA", "unit tag": "enrichment R", "measured value": 0.878}
{"binder": "chr15:12740188:12740189:-_ENSMUSG00000022195_ENSMUST00000057256|mus_hu|FALSE|FALSE (ssRNA) RNA: GGGAGUUCUACAGUCCGACGAUCAUAAAUGAAGUAUGAAUGAAUCUCAUACAGCUCAACAGACCUGGGGGAAAAGUGAAGACAAACAAACAAACAAACAAAAAAAAAAACAAAACCCUAAAAAAUACUUAAGGAAGACAGAUACAACAGAGGAUUGAGCAUCA", "unit tag": "enrichment R", "measured value": 6.86}
{"binder": "5253780_5253900_1103_CDS_ENSG00000029725_ENST00000262477|human|control|control (ssRNA) RNA: GGGAGUUCUACAGUCCGACGAUCAACUUGUCGGAGCUGUUCUGAAGUUAGCACAAUCUCCAUUCGCUGCAUGUCUCUCAUCAGUAAACGCUGAGAUUCCAGAAACUGGUCAUUGGCCUUCUGCCACGUAUGUUUUAACUGGUUCAACAGAGGAUUGAGCAUCA", "unit tag": "enrichment R", "measured value": 0.594}
{"binder": "chr7:135840685:135840686:-_ENSMUSG00000048170_ENSMUST00000057557|mus_mus|FALSE|FALSE (ssRNA) RNA: GGGAGUUCUACAGUCCGACGAUCCAACUCCCUUGAUUUAUCAAGGCCGACCCUGUUUCCUUGGUUAGCAGGGAAGAAUCUAAGGGACCACUGAUUGAUCUUCACACACAGCAGAUGAGAUUAACAGCAAGGUUCUAACUUUUCCAACAGAGGAUUGAGCAUCA", "unit tag": "enrichment R", "measured value": 1.03}

Return reported binding signal; argument: 176631152_176631272_1200_CDS_ENSG00000165671_ENST00000439151|human|control|control (ssRNA) RNA: GGGAGUUCUACAGUCCGACGAUCUUUCUGUUUCCCUCUUCUCCUAAGGACAGGUAGCUCUUCGAAUUGAUGUCUGCCUUCAAACAUGACGAUUGCUUUUCCAGCCACCCAGGCUCUCUCAGAAGGAUCUCCAAAAGCCUCCACCAACAGAGGAUUGAGCAUCA
0.923

Return reported binding signal; argument: chr9:15453159:15453160:+_ENSG00000164975_ENST00000490969|hu_hu|FALSE|FALSE (ssRNA) RNA: GGGAGUUCUACAGUCCGACGAUCAUGAUGCACAAGCCUUAUGUCAGUAAUGACAAUGACAUGUUCACAGUCUCCCUGAUGACAGUAUAAGUAAGGAAAACCCAGUUUAAUACACAAGUCAUUGAAGGUGAAAUCUUCCAUUCUCAACAGAGGAUUGAGCAUCA
1.02

Return reported binding signal; argument: chr7:54825262:54825263:-_ENSG00000132432_ENST00000352861|hu_hu|hu_hu_hu_mus_False|58_58 (ssRNA) RNA: GGGAGUUCUACAGUCCGACGAUCCUGCCGGCUGGGCUCCACAAACUGCAUUACCUGAUCCAUGUUUGUUGGAUGGCACACCUAAAACGUAGAGACACGUAGCUCAGGAGAGAACCGAGCCCAACGGAACCGGAAGCUGGCAACCAACAGAGGAUUGAGCAUCA
1.08

Return reported binding signal; argument: 90660906_90661026_1561_CDS_ENSG00000112182_ENST00000537989|human|control|control (ssRNA) RNA: GGGAGUUCUACAGUCCGACGAUCAUCCCCCGCUCUGUCCUUGGCGUCAGGCUCAUCUCCAGACAGGCAGAGCGUGAUGCUCUCUUCCUCAUUCUCUUCACUGGGCGGCUCACUUUUAAUCUGCCCCCUGGCAAGCCCCGGCUUCAACAGAGGAUUGAGCAUCA
0.641

Return reported binding signal; argument: 176792147_176792267_4022_3pUTR_ENSG00000144320_ENST00000272748|human|control|control (ssRNA) RNA: GGGAGUUCUACAGUCCGACGAUCACAUGAUAGGGAGUAAAAGGCAGAGGCCAGCUUCAGAUGGGGAGUUUGGGAAGGCAUCUCUCUGAGGAGGCAAAAUUUAAGCUGAAAUCUGAGGCAGGAAAGGGCAUGGUCAGAGAACUGCAACAGAGGAUUGAGCAUCA
3.56

Return reported binding signal; argument: chr4:103718443:103718444:-_ENSG00000109332_ENST00000394803|perfect_dup|FALSE|FALSE (ssRNA) RNA: GGGAGUUCUACAGUCCGACGAUCAAAGCUGGAAGAACUUAAGUCUUCUCAGAUGAGCAUGUGAAUGAAUGGAGGGAGGUAAACAAAAAAUAAAAUUAAAAAAGAUGAGGUCUGAUAGGGGAGCAGCCGGAUAAGAAAAUCAAACAACAGAGGAUUGAGCAUCA
21.1

Return reported binding signal; argument: chr10:57235669:57235670:-_ENSMUSG00000019877_ENSMUST00000020027|mus_hu|FALSE|FALSE (ssRNA) RNA: GGGAGUUCUACAGUCCGACGAUCAAAUUGUGGAAUACAAUGUCUACACACAGAAUAAGGUUGGGGAAUUAAGCUGAAUUGUUAUAUUCCAUUCACAUUAAUAAAUAUUUUUAAAGAAGAAAUUGUAGAUUUUAAAAGCUUCAUCAACAGAGGAUUGAGCAUCA
6.49

Return reported binding signal; argument: chr8:21961785:21961786:+_ENSG00000158863_ENST00000289921|hu_mus|FALSE|FALSE (ssRNA) RNA: GGGAGUUCUACAGUCCGACGAUCCCAUGCAAAUGCCAAAGUGCAUUGAGUAUUGCCCAGCCUCUCAAACGAGUACAAAUCUCAAGUGUAGACCCACUCCACCAAGAUCUGCUCCUGUCCCACACCAGCACCCAUGUGUACUCACAACAGAGGAUUGAGCAUCA
1.22
